Every entry's value here was drawn from patent US20200377590A1.

- Target or test system: T1, CD81 (UniProt P60033 1-236, limits assumed)
- T1 construct: whole, on cells; also called CD81 receptor
- T1 sequence (looked up): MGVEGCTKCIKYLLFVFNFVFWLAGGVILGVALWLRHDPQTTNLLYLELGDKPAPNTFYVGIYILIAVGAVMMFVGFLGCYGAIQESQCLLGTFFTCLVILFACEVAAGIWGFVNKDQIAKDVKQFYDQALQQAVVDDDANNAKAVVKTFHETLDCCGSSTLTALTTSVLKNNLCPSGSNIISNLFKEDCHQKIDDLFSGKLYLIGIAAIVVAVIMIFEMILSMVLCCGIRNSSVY
- Protocol details: cell ELISA;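 note: antibody binding to HuH7 cells expressing CD81 versus a CD81-negative HuH7 control line, bound antibody detected by secondary reagent, absorbance at 450 nm with 620 nm reference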

Binder	ELISA data
CD81K04 HC JA_GG-13-hVH_1_69 / LC JA_GG-10-hVK_4_1 (antibody, V domains shown, human constant region) VH: QVQLVQSGAEVKKPGSSVKVSCKASGGTFSSSWMNWVRQAPGQGLEWMGRIYSGDGDAIYAQKFQGRVTITADESTSTAYMELSSLRSEDTAVYYCAREGKTGDLLLRSWGQGTLVTVSS VL: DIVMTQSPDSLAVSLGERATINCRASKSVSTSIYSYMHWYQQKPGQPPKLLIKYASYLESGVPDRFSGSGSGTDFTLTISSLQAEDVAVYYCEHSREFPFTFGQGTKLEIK	0.613
CD81K04 HC K04_JA-13-hVH_1_3 / LC JA_GG-09-hVK_4_1 (antibody, V domains shown, human constant region) VH: QVQLVQSGAEVKKPGASVKVSCKASGYTFSSSWMNWVRQAPGQRLEWMGRIYSGDGDAIYNGKFKGRVTITRDTSASTAYMELSSLRSEDTAVYYCAREGKTGDLLLRSWGQGTLVTVSS VL: DIVMTQSPDSLAVSLGERATINCKSSKSVSTSIYSYMHWYQQKPGQPPKLLIKYASTRESGVPDRFSGSGSGTDFTLTISSLQAEDVAVYYCEHSREFPFTFGQGTKLEIK	0.864
CD81K04 HC GG-01-hVH_5_51 / LC JA_GG-10-hVK_4_1 (antibody, V domains shown, human constant region) VH: EVQLVQSGAEVKKPGESLKISCKGSGYSFSSSWMNWVRQMPGKGLEWMGRIYSGDGDAIYSPSFQGQVTISADKSISTAYLQLSSLKASDTAMYYCAREGKTGDLLLRSWGQGTLVTVSS VL: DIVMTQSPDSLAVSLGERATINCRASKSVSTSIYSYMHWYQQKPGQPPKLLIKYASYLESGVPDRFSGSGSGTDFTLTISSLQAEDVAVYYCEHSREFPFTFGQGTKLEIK	0.064
